- target or system: LHRH receptor (LHRH binding sites) on EFO-27 human ovarian cancer cells (human)
- measurement description: competition with [125I-Tyr8]BRU-2477 for binding to EFO-27 cells
Non-standard residues stand in square brackets, D forms with d. Bpa = N[C@@H](Cc1ccc(C(=O)c2ccccc2)cc1)C(=O)O; d2Nal = N[C@H](Cc1ccc2ccccc2c1)C(=O)O; DO3A10CM = not defined here; Bpa4 = non-natural residue; Ampt4 = not defined here; azaGly = NNC(=O)O
reported endpoint: pEC50
Answers are plain numbers, as −log10 of the molar value.

Recorded pEC50, per entry:
Enquiry: // query pEC50 value for entry DO3A10CM-[d2Nal]RWSH[dR]W[Bpa4]-OH (reading uncertain; also: printed as DO3A10CM-Dnal2-Arg-Trp-Ser-His-Darg-Trp-Bpa4-OH) [BRU-3064]
Return: 6.14

Enquiry: Name the recorded pEC50 for DO3A10CM-[d2Nal]RWSH[dR]W[Bpa][Ampt4][azaGly]-NH2 (reading uncertain; also: printed as DO3A10CM-Dnal2-Arg-Trp-Ser-His-Darg-Trp-Bpa4-Ampt4-azaGly-NH2) [BRU-2995] .
Return: 6.39

---
Enquiry: What value of pEC50 has been reported for the following binder? XRWSHXWXXX (as printed: DO3A10CM-Dnal2-Arg-Trp-Ser-His-Darg-Trp-Bpa4-Thz-azaGly-NH2) [BRU-3072]
Return: 6.80

Reference for the values: patent US20120045393A1
